Assay: Inhibition of PARP1 in human Jurkat cells assessed as reduction of cell viability after 96 hrs by MTS assay
// assign Yes if EC50 falls strictly below 80 µM, else No (ties count as No)

These solved cases illustrate the format of a correct answer.
| compound | group |
| --- | --- |
| CCNC(=O)c1ccc(N2CCN(Cc3cc(C)c4c(c3)NC(=O)C(C)O4)CC2)c(Cl)c1 (centres undefined) | Yes |
| CCNC(=O)c1ccc(N2CCN(Cc3cc4c(c(OCC)c3)OC(C)C(=O)N4)CC2)c(C)c1 (centres undefined) | No |
| COc1cc(CN2CCN(c3ccc(C(=O)NC4CC4)cc3)CC2)cc2c1OC(C)C(=O)N2 (centres undefined) | No |
| CCOc1cc(CN2CCN(c3ccc(C(=O)NC)cc3C)CC2)cc2c1OC(C)C(=O)N2 (centres undefined) | Yes |
| CCNC(=O)c1ccc(N2CCN(Cc3ccc4c(c3)NC(=O)C(C)O4)CC2)cc1 (centres undefined) | Yes |
| CNC(=O)c1ccc(N2CCN(Cc3cc4c(c(OC)c3)OC(C)C(=O)N4)CC2)cc1 (centres undefined) | No |
| CCNC(=O)c1ccc(N2CCN(Cc3cc(C)c4c(c3)NC(=O)C(C)O4)CC2)cc1 (centres undefined) | No |
| COc1cc(CN2CCN(c3ccc(C(=O)NC4CC4)cc3C)CC2)cc2c1OC(C)C(=O)N2 (centres undefined) | Yes |

Field: next compound
query: Could you please tell me whether EC50 recorded for CCNC(=O)c1ccc(N2CCN(Cc3cc4c(c(OC)c3)OC(C)C(=O)N4)CC2)c(C)c1 (centres undefined) is less than 80 µM?
result: Yes

* * *

Experiment: Inhibition of PARP1 in human Jurkat cells assessed as reduction of cell viability after 96 hrs by MTS assay in presence of 100 uM of temozolomide
Lab note: anything with EC50 below 10 µM is marked 1; values at 10 µM or higher are marked -1.

| molecule | group |
| --- | --- |
| CCOc1cc(CN2CCN(c3ccc(C(=O)NC4CC4)cc3C)CC2)cc2c1OC(C)C(=O)N2 (centres undefined) | 1 |
| CCNC(=O)c1ccc(N2CCN(Cc3cc(C)c4c(c3)NC(=O)C(C)O4)CC2)c(Cl)c1 (centres undefined) | -1 |
| CCNC(=O)c1ccc(N2CCN(Cc3ccc4c(c3)NC(=O)C(C)O4)CC2)cc1 (centres undefined) | -1 |
| CCOc1cc(CN2CCN(c3ccc(C(=O)NC)cc3C)CC2)cc2c1OC(C)C(=O)N2 (centres undefined) | 1 |
| CNC(=O)c1ccc(N2CCN(Cc3cc(C)c4c(c3)NC(=O)C(C)O4)CC2)cc1 (centres undefined) | -1 |

query: Is the reported EC50 for Cc1cc(C(=O)NC2CC2)ccc1N1CCN(Cc2cc(C)c3c(c2)NC(=O)C(C)O3)CC1 (centres undefined) strictly below 10 µM?
result: -1

query: Field: below-cutoff. Rule: recorded EC50 strictly less than 10 µM. Subject: CCNC(=O)c1ccc(N2CCN(Cc3cc(C)c4c(c3)NC(=O)C(C)O4)CC2)cc1 (centres undefined)
result: 1

query: Decide: EC50 of CCNC(=O)c1ccc(N2CCN(Cc3cc4c(c(OC)c3)OC(C)C(=O)N4)CC2)c(C)c1 (centres undefined) strictly below 10 µM?
result: 1

query: Is EC50 strictly under 10 µM for the entry CCNC(=O)c1ccc(N2CCN(Cc3cc(C)c4c(c3)NC(=O)C(C)O4)CC2)c(C)c1 (centres undefined) ?
result: 1

* * *

Assay: Inhibition of PARP1 in human Jurkat cells assessed as reduction of cell viability after 96 hrs by MTS assay
property name: EC50 (µM)
The reply should be a number in µM, with the unit left off.

Example entries begin here.
| compound | value observed |
| --- | --- |
| CCOc1cc(CN2CCN(c3ccc(C(=O)NC4CC4)cc3C)CC2)cc2c1OC(C)C(=O)N2 (configuration not stated) | 100 |
| Cc1cc(C(=O)NC2CC2)ccc1N1CCN(Cc2cc(C)c3c(c2)NC(=O)C(C)O3)CC1 (configuration not stated) | 100 |
| CNC(=O)c1ccc(N2CCN(Cc3ccc4c(c3)NC(=O)C(C)O4)CC2)cc1 (configuration not stated) | 14 |

query: Give the value of EC50 reported for the following: Cc1cc(CN2CCN(c3ccc(C(=O)NC4CC4)cc3Cl)CC2)cc2c1OC(C)C(=O)N2 (configuration not stated)
result: 43

query: State its EC50: Cc1cc(CN2CCN(c3ccc(C(=O)NC4CC4)cc3)CC2)cc2c1OC(C)C(=O)N2 (configuration not stated)
result: 100

query: Give recorded EC50. CNC(=O)c1ccc(N2CCN(Cc3cc(C)c4c(c3)NC(=O)C(C)O4)CC2)c(C)c1 (configuration not stated)
result: 78

query: Annotate the compound CNC(=O)c1ccc(N2CCN(Cc3cc(C)c4c(c3)NC(=O)C(C)O4)CC2)c(Cl)c1 (configuration not stated) with its measured EC50.
result: 45
